Tested on: HepG2, A549 and MCF7 cells
Test: Cytotoxic activity (MTS assay), stated jointly for three cancer cell lines
Type: cell-based
Details: Homo sapiens, read-out: IC50 values against the three cancer cell lines (range)
MEASUREMENT NAME: IC50

Entry C=C(C)C(CC=C(C)C)Cc1cc(OC)ccc1C1Oc2cc(O)cc(CC(CC=C(C)C)C(=C)C)c2C(=O)C1O (stereo not shown) : reported IC50 = ?
7.5 to 10.6 µM

----------
Test system: A549 cells
Test: Cytotoxic activity (MTS assay), A549
Format: cell-based, human
Settings: Homo sapiens, A549; 10 µM; SD in brackets; read-out: A549 cell inhibitory activity (Table S5)
Below, each entry is listed with its recorded inhibition at 10 µM.
Supply the numeric figure in %, leaving out any unit text.

Use the examples below as a reference point.
Entry CC(C)=CCc1c(O)cc(O)c2c1OC(c1ccc(O)cc1)CC2=O (stereo not drawn) : reported inhibition at 10 µM = ?
8

Now give it for O=C(/C=C/c1ccc(O)cc1)c1ccc(O)cc1O too.
-5.7

// next item, inhibition at 10 µM requested
Entry COc1ccc(-c2coc3cc(O)ccc3c2=O)cc1O : reported inhibition at 10 µM = ?
6.4

----------
Tested on: A549 cells
Assay: Cytotoxic activity (MTS assay), A549
Type: cell-based, human
Settings: Homo sapiens, A549; 10 µM; SD in brackets; read-out: A549 cell inhibitory activity (Table S5)
Below, each entry is listed with its recorded inhibition at 10 µM.
Supply the numeric figure in %, leaving out any unit text.

Use the examples below as a reference point.
Entry O=c1ccc2ccc(O)c(O)c2o1 [Compound 25, 7,8-dihydroxycoumarin] : reported inhibition at 10 µM = ?
32.4

Now give it for C=C(C)C(CC=C(C)C)Cc1cc(OC)ccc1C1Oc2cc(O)cc(CC(CC=C(C)C)C(=C)C)c2C(=O)C1O (stereo not shown) [Compound 1] too.
58

Now give it for O=c1c(O)c(-c2ccc(O)c(O)c2)oc2cc(O)cc(O)c12 [Compound 16, quercetin] too.
12.1

Now give it for COc1ccc(C(=O)O)c(O)c1 [Compound 26, 4-methoxysalicylic acid] too.
9.4

Now give it for COc1cc(O)c(CC=C(C)C)c2oc(-c3ccc(O)cc3)c(O)c(=O)c12 [Compound 14, sophoflavescenol] too.
6.9

***
Entry O=c1cc(-c2ccc(O)cc2)oc2cccc(O)c12 [Compound 22, 5,4′-dihydroxyflavone] : reported inhibition at 10 µM = ?
29.7

Now give it for O=c1c(-c2ccc(O)cc2)coc2cc(O)cc(O)c12 [Compound 18, genistein] too.
6.6

Now give it for CC(C)=CCC(Cc1c(O)cc(O)c2c1OC(c1ccc(O)cc1O)CC2=O)C(C)CO (stereo not shown) [Compound 9, kushenol Q] too.
-10.9

Now give it for O=c1cc(-c2ccc(O)c(O)c2)oc2cc(O)cc(O)c12 [Compound 23, luteolin] too.
41.3

Now give it for C=C(C)[C@H](CCC(C)(C)O)Cc1c(O)cc(OC)c2c1O[C@H](c1ccc(O)cc1O)CC2=O [Compound 12, kurarinol] too.
37

Now give it for COc1ccc(-c2coc3cc(O)cc(O)c3c2=O)cc1 [Compound 21, biochanin A] too.
8.7

Now give it for C=C(C)[C@H](CCC(C)(C)O)Cc1c(O)cc(OC)c2c1O[C@H](c1ccc(O)cc1O)[C@@H](O)C2=O [Compound 3, kushenol H] too.
11.3

Now give it for C=C(C)C(CCC(C)(C)O)Cc1cc(O)c(C(=O)/C=C/c2ccc(O)cc2O)c(OC)c1O (stereo not shown) [Compound 5, kuraridinol] too.
-0.2

Now give it for COc1ccc(-c2coc3cc(O)ccc3c2=O)cc1 [Compound 20, formononetin] too.
-6.2

Now give it for O=C1C[C@@H](c2ccc(O)cc2)Oc2cc(O)cc(O)c21 [Compound 11, naringenin] too.
14.7

Now give it for C=C(C)C(CCC(C)(C)O)Cc1c(O)cc(OC)c2c1OC(c1ccc(O)cc1O)C(O)C2=O (stereo not shown) [Compound 4, kushenol L] too.
8.2

----------
Tested on: HepG2 cells
Assay: Cytotoxic activity (MTS assay), HepG2
Format: cell-based, human
Conditions: Homo sapiens, HepG2, 10 µM; SD in brackets; read-out: HepG2 cell inhibitory activity (Table S4)
Below, each entry is listed with its recorded inhibition at 10 µM.
Supply the numeric figure in %, leaving out any unit text.

Entry COc1ccc(-c2coc3cc(O)ccc3c2=O)cc1 : reported inhibition at 10 µM = ?
1.4

----------
Test system: A549 cells
Experiment: Cytotoxic activity (MTS assay), A549
Assay type: cell-based, human
Settings: Homo sapiens, A549; 10 µM; SD in brackets; read-out: A549 cell inhibitory activity (Table S5)
MEASUREMENT NAME: inhibition at 10 µM (%)
Supply the numeric figure in %, leaving out any unit text.

Use the examples below as a reference point.
Entry COc1cc(O)c(CC=C(C)C)c(O)c1C(=O)/C=C/c1ccc(O)cc1 : reported inhibition at 10 µM = ?
16.4

Now give it for COc1cc(O)c2c(=O)c(-c3ccc(O)c(OC)c3)coc2c1 too.
40.9

Now give it for O=C(O)c1ccc(O)cc1O too.
22.8

Now give it for C=C(C)C(CC=C(C)C)Cc1c(O)c(OC)c2c(c1O)C(=O)C(O)C(c1ccc3c(c1)OCO3)O2 (centres unmarked) too.
17.2

// next item, inhibition at 10 µM requested
Entry O=c1ccc2ccc(O)cc2o1 [Compound 24, 7-hydroxycoumarin] : reported inhibition at 10 µM = ?
21.4

----------
Below, each entry is listed with its recorded IC50.
Test system: MCF7 cells
Experiment: Cytotoxic activity (MTS assay), MCF7
Format: cell-based, human
Settings: Homo sapiens, MCF7; 24 h, MTS
Supply the numeric figure in µM, leaving out any unit text.

What is its IC50 for MCF7 cells? Entry: CCc1c2c(nc3ccc(OC(=O)N4CCC(N5CCCCC5)CC4)cc13)-c1cc3c(c(=O)n1C2)COC(=O)[C@]3(O)CC [irinotecan, reference compound]
0.9

Now give it for C=C(C)C(CC=C(C)C)Cc1cc(OC)ccc1C1Oc2cc(O)cc(CC(CC=C(C)C)C(=C)C)c2C(=O)C1O (centres unmarked) too.
7.5

----------
Test: ABTS free radical scavenging assay
Format: biochemical
Conditions: 20 μg/mL; SD in brackets
MEASUREMENT NAME: ABTS radical scavenging activity (inhibition rate)

Entry CC(C)=CCc1c(O)cc(O)c2c1OC(c1ccc(O)cc1)CC2=O (stereo not shown) [Compound 10, sophoraflavanone B] : reported ABTS radical scavenging activity (inhibition rate) = ?
88.0% (2.1%)

Now give it for O=c1cc(-c2ccc(O)cc2)oc2cccc(O)c12 [Compound 22, 5,4′-dihydroxyflavone] too.
76.3% (4.7%)

Now give it for COc1ccc(-c2coc3cc(O)ccc3c2=O)cc1O [Compound 19, calycosin] too.
51.3% (2.4%)

Now give it for COc1ccc(-c2coc3cc(O)ccc3c2=O)cc1 [Compound 20, formononetin] too.
23.3% (0.9%)

Now give it for COc1ccc(C(=O)O)c(O)c1 [Compound 26, 4-methoxysalicylic acid] too.
72.9% (3.0%)

Now give it for COc1ccc(-c2coc3cc(O)cc(O)c3c2=O)cc1 [Compound 21, biochanin A] too.
76.4% (1.3%)

// next item, ABTS radical scavenging activity (inhibition rate) requested
Entry O=c1ccc2ccc(O)cc2o1 [Compound 24, 7-hydroxycoumarin] : reported ABTS radical scavenging activity (inhibition rate) = ?
16.8% (3.2%)

----------
System: HepG2 cells
Experiment: Cytotoxic activity (MTS assay), HepG2
Format: cell-based, human
Conditions: Homo sapiens, HepG2, 10 µM; SD in brackets; read-out: HepG2 cell inhibitory activity (Table S4)
Kind request: treat 5% as inclusive, so inhibition at 10 µM at 5% or higher is criterion met, anything lower is criterion not met.

Example entries begin here.
# check: inhibition at 10 µM of CC(C)=CCc1c(O)cc(O)c2c1OC(c1ccc(O)cc1)CC2=O (stereo not drawn) is greater than or equal to 5%
criterion met

Now give it for C=C(C)[C@H](CC=C(C)C)Cc1c(O)cc(OC)c(C(=O)/C=C/c2ccc(O)cc2O)c1O too.
criterion not met

***
# check: inhibition at 10 µM of O=c1c(O)c(-c2ccc(O)c(O)c2)oc2cc(O)cc(O)c12 is greater than or equal to 5%
criterion not met

Now give it for C=C(C)C(CCC(C)(C)O)Cc1cc(O)c(C(=O)/C=C/c2ccc(O)cc2O)c(OC)c1O (stereo not drawn) too.
criterion met

Now give it for C=C(C)C(CCC(C)(C)O)Cc1c(O)cc(OC)c2c1OC(c1ccc(O)cc1O)C(O)C2=O (stereo not drawn) too.
criterion not met

Now give it for O=c1cc(-c2ccc(O)cc2)oc2cccc(O)c12 [Compound 22, 5,4′-dihydroxyflavone] too.
criterion not met

Now give it for C=C(C)C(CC=C(C)C)Cc1c(O)c(OC)c2c(c1O)C(=O)C(O)C(c1ccc3c(c1)OCO3)O2 (stereo not drawn) too.
criterion met

Now give it for O=C(/C=C/c1ccc(O)cc1)c1ccc(O)cc1O too.
criterion not met
